protocol: Plasma pharmacokinetics after single oral dose of Δ8-THCV in MCT oil (LC-MS/MS, non-compartmental analysis)
Type: in vivo, human
condition parameters: human, plasma, oral, 50 mg, 6 h; 50 mg Δ8-THCV dose; Median (IQ Range)
measurement kind: concentration at 6 h (ng/mL)
Reply numerically in ng/mL, unit not repeated.

Asked: Which concentration at 6 h is reported for this compound? CCCc1cc(O)c2c(c1)OC(C)(C)[C@@H]1CCC(C)=C[C@@H]21 [Δ9-THCV, Δ9-tetrahydrocannabivarin]
Given back: 0

Asked: # lookup: concentration at 6 h of CCCc1cc(O)c2c(c1)OC(C)(C)[C@@H]1CC=C(CO)C[C@@H]21 (racemic) [11-OH-Δ8-THCV, (±)-11-hydroxy-Δ8-THCV]
Given back: 0.9

Asked: Fill in: concentration at 6 h of CCCc1cc(O)c2c(c1)OC(C)(C)[C@@H]1CC=C(C(=O)O)C[C@@H]21 [Δ8-THCV-COOH, 11-nor-9-carboxy-Δ8-THCV] is ___
Given back: 200

Asked: Record request: concentration at 6 h value, item CCCc1cc(O)c2c(c1)OC(C)(C)[C@@H]1CCC(C(=O)O)=C[C@@H]21 [Δ9-THCV-COOH, 11-nor-9-carboxy-Δ9-THCV]
Given back: 5.9

Asked: Look up concentration at 6 h: CCCc1cc(O)c2c(c1)OC(C)(C)[C@@H]1CC=C(C)C[C@@H]21 [Δ8-THCV, Δ8-tetrahydrocannabivarin]
Given back: 2.8

Asked: Given the compound CCCCCc1cc(O)c2c(c1)OC(C)(C)[C@@H]1CC=C(C(=O)O)CC21 (single isomer, unassigned; (+)) [Δ8-THC-COOH, (+)-11-nor-Δ8-THC-9-carboxylic acid] , what is its reported concentration at 6 h?
Given back: 0
